Test: Human HepG2 cell viability assay in 384 well format
Type: toxicity, cell-based
Set-up: dose 125 nL, time 70.5 hour; concentration not given beside the values
Conditions: HepG2 cells, read-out: Inhibition
measure: cytotoxicity at 70.5 h (%)

# compound, measure, reported-measurement
rows = [
    ("Clc1ccc(-n2nnnc2C2(NCc3ccco3)CCCCC2)cc1", "cytotoxicity at 70.5 h", -11.2),
    ("O=C(NCCOc1ccc2c(c1)CCC2)N1CCS(=O)(=O)CC1", "cytotoxicity at 70.5 h", 23.8),
    ("COC(=O)C1=NOC(Cc2cc(OC)c3c(c2)OCO3)C1 (stereo not drawn)", "cytotoxicity at 70.5 h", -20.2),
    ("Cc1cc(I)c2c(c1)C(=O)C(CN1CCCC1)(CN1CCCC1)CO2", "cytotoxicity at 70.5 h", -0.395),
    ("CCC(Nc1nc(C(C)C)nc2c1cnn2C)c1ccc(O)cc1 (stereo not drawn)", "cytotoxicity at 70.5 h", 5.5),
    ("O=c1cc(N2CCCCC2)cnn1Cc1noc(C2CCCO2)n1 (stereo not drawn)", "cytotoxicity at 70.5 h", -10.8),
    ("Cc1nc(-c2ccco2)ccc1C(=O)N1CCn2c(C)nnc2C1", "cytotoxicity at 70.5 h", -17.1),
    ("OCC1CCCN1c1cc(NCCc2c[nH]c3ccccc23)ncn1 (stereo not drawn)", "cytotoxicity at 70.5 h", 1.16),
    ("COc1cccc(CNC(=O)c2ccccc2-n2cc(CN)cn2)c1", "cytotoxicity at 70.5 h", -2.7),
    ("COC(=O)CN(CC1CCOC1)C1CC1 (stereo not drawn)", "cytotoxicity at 70.5 h", -3.42),
    ("COCc1nccc(C2CCCN(Cc3ccc(C#N)cc3)C2)n1 (stereo not drawn)", "cytotoxicity at 70.5 h", -5.34),
    ("CCOc1cccc(C(C)NC(=O)N2CCC(C(N)=O)CC2)c1 (stereo not drawn)", "cytotoxicity at 70.5 h", -8.18),
    ("OCC1(CCOc2ccccc2)CCCN(c2ccc(Cl)cn2)C1 (stereo not drawn)", "cytotoxicity at 70.5 h", -2.17),
    ("Cc1oncc1C(=O)N1C[C@H](OCc2ccccn2)[C@H]2OCCC[C@H]21", "cytotoxicity at 70.5 h", -11.5),
    ("CC(C)C(C(=O)N1CCN(Cc2ccccn2)CC1)n1cncn1 (stereo not drawn)", "cytotoxicity at 70.5 h", -10.2),
    ("NC(=O)C(c1ccc(F)cc1)N1CCN(CCO)CC1 (stereo not drawn)", "cytotoxicity at 70.5 h", -6.75),
    ("Cc1nc(CN(C)Cc2cc3c(cc2OC(F)F)OCO3)oc1C", "cytotoxicity at 70.5 h", 4.89),
    ("CC(=O)Nc1nc(C2CCCN(C(=O)CN(C)C)C2)cs1 (stereo not drawn)", "cytotoxicity at 70.5 h", -9.21),
]
